The measured values listed here are drawn from patent US20090270338A1.

IC50 values for the molecules below.
# systemTested: Human Cav2.2 channels (Homo sapiens, UniProt Q00975)
# Sequence (Q00975 whole entry): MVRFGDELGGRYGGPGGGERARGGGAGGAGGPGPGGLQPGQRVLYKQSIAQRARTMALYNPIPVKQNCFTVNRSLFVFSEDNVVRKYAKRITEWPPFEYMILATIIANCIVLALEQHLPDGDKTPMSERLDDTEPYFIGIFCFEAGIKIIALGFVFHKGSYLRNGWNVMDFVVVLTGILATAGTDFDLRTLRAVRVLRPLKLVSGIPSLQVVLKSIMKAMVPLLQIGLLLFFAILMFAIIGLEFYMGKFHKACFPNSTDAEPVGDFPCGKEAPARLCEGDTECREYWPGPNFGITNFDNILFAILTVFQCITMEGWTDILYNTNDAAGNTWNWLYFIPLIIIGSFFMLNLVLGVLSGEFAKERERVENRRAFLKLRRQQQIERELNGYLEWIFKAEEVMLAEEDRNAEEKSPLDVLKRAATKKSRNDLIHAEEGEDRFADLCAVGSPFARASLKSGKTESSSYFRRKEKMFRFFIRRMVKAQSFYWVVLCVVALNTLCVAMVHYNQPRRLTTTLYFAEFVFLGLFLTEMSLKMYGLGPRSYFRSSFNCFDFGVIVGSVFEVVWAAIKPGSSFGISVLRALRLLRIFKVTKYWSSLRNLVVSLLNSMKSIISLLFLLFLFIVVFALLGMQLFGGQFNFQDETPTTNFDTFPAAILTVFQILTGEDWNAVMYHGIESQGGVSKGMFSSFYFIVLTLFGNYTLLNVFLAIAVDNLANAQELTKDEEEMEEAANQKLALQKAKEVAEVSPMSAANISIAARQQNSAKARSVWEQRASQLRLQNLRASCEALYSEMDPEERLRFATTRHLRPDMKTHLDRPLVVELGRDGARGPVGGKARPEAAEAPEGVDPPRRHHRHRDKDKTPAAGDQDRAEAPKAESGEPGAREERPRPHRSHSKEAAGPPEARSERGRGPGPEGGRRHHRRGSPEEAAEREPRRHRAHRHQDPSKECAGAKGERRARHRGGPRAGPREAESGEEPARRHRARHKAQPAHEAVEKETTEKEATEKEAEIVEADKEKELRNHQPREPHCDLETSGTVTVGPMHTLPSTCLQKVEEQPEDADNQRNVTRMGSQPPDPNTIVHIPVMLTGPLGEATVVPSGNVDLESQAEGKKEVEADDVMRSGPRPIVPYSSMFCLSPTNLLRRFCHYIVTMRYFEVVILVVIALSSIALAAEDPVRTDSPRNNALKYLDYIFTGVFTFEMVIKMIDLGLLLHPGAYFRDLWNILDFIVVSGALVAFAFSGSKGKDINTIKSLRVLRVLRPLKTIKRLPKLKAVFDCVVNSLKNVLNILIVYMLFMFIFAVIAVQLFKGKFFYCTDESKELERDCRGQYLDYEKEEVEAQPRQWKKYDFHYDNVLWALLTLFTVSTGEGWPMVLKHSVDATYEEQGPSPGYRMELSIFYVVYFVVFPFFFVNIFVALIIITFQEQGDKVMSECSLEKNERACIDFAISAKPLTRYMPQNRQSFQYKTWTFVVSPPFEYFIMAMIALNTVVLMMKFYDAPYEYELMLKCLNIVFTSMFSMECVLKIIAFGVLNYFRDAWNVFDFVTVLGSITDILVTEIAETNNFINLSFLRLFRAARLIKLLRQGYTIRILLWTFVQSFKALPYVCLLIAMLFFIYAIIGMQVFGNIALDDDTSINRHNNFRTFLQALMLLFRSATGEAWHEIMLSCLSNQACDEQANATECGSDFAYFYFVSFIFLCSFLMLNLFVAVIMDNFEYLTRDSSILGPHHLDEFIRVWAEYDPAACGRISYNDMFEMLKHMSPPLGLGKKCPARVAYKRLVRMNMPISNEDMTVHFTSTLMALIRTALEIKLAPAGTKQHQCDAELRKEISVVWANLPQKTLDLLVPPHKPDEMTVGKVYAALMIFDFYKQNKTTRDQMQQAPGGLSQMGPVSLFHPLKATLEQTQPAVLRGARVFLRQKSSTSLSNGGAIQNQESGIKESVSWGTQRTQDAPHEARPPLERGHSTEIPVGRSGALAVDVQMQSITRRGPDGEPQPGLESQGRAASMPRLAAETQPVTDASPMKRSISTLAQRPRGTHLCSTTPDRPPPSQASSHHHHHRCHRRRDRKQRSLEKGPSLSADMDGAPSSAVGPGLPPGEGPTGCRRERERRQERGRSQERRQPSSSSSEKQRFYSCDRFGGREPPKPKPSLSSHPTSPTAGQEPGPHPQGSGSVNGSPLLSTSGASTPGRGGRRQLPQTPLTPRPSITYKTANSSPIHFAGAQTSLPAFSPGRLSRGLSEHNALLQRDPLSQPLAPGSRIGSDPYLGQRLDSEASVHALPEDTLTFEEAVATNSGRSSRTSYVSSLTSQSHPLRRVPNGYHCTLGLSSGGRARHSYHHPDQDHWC
# Sequence (P54289 25-1103 partner): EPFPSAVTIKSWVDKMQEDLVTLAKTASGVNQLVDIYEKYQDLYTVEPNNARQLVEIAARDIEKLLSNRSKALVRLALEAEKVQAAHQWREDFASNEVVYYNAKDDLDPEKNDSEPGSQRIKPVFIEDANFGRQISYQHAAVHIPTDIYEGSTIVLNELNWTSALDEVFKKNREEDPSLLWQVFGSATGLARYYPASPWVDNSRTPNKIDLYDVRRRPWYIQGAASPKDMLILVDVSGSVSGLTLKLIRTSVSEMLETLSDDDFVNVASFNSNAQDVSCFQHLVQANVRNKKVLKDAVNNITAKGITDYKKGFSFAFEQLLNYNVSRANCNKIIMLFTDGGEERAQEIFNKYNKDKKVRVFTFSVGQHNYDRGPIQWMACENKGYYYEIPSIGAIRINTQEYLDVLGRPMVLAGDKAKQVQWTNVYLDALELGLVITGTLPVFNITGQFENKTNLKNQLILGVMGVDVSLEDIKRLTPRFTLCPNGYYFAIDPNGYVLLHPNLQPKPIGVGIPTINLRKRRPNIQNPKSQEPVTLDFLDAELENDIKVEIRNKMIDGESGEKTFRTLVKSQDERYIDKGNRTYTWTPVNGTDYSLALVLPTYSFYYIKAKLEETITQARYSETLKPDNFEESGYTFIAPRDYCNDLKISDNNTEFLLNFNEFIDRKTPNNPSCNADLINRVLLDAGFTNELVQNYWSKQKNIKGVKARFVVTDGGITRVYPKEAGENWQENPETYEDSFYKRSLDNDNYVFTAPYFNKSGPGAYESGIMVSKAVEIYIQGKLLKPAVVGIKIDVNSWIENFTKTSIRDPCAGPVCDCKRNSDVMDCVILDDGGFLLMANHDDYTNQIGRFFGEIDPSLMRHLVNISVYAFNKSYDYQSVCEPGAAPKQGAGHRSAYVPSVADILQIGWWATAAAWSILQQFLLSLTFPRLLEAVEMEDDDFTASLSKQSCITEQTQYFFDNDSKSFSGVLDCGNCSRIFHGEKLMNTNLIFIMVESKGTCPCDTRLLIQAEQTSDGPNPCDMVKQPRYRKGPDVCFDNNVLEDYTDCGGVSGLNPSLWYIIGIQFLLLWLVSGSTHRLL
# Sequence (P54284 whole entry partner): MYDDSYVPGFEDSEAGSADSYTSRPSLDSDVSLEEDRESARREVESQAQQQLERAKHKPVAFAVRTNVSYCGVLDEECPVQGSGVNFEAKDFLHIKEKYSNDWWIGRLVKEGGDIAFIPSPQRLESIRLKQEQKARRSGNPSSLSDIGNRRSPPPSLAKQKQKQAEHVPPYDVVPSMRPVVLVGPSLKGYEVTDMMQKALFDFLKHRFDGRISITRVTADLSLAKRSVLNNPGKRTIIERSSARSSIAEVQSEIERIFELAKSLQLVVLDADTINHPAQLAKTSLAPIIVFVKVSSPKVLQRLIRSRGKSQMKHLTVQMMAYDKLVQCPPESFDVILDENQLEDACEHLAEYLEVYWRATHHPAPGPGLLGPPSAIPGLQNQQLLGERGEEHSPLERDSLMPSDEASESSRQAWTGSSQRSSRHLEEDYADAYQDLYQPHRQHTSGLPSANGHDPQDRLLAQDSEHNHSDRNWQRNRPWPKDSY
# assayInfo: Fluorescent assay for Cav2.2 channels using potassium depolarization (Table 2, In Vitro Activity, Cav 2.2 Activity)
# conditionLabel: 30 mM K

| molecule | systemTested | unitAbbrev | IC50 |
| --- | --- | --- | --- |
| O=C(CC(c1ccccc1)c1ccccc1)NC1(C(=O)N2CCN(c3cccc(F)c3)CC2)CCCCC1 [Compound 15] | Human Cav2.2 channels (Homo sapiens, UniProt Q00975) | µM | 0.33 |
| Cc1ccccc1C(CC(=O)NC1(C(=O)N2CCN(c3ccccc3)CC2)CCCCC1)c1ccccc1C [Compound 3] | Human Cav2.2 channels (Homo sapiens, UniProt Q00975) | µM | 0.44 |
| O=C(CC(c1ccccc1)c1ccccc1)NC1(C(=O)NCc2ccc(F)cc2F)CCCCC1 [Compound 10] | Human Cav2.2 channels (Homo sapiens, UniProt Q00975) | µM | 0.43 |
| O=C(CC(c1ccccc1)c1ccccc1)NC1(C(=O)N2CCN(c3ccc(F)cc3F)CC2)CCCCC1 [Compound 14] | Human Cav2.2 channels (Homo sapiens, UniProt Q00975) | µM | 0.32 |

###

# systemTested: Human Cav2.2 channels (Homo sapiens)
# Construct: expressed in transfected cells
# assayInfo: Fluorescent assay for Cav2.2 channels using potassium depolarization (Table 2, In Vitro Activity, Cav 2.2 Activity)
# Assay type: cell-based
# conditionLabel: 10 μM, read-out: % Inh at 10 μM

| molecule | inhibition at 10 µM (%) |
| --- | --- |
| CC(C)(C)N1CCN(C(=O)C2(NC(=O)CC(c3ccccc3)c3ccccc3)CCCCC2)CC1 [Compound 1] | 42 |
| O=C(CC(c1ccccc1)c1ccccc1)NC1(C(=O)NCc2cccc(C(F)(F)F)c2)CCCCC1 [Compound 7] | 99 |
| O=C(CC(c1ccccc1)c1ccccc1)NC1(C(=O)NCc2ccc(O)cc2)CCCCC1 [Compound 18] | 87 |
| Cc1ccc(N2CCN(C(=O)C3(NC(=O)CC(c4ccccc4)c4ccccc4)CCCCC3)CC2)cc1C [Compound 12] | 95 |
| COc1ccc(CNC(=O)C2(NC(=O)CC(c3ccccc3)c3ccccc3)CCCCC2)cc1 [Compound 9] | 97 |
| Cc1cnccc1CNC(=O)C1(NC(=O)CC(c2ccccc2)c2ccccc2)CCCCC1 [Compound 21] | 14 |
| Cc1ccnc(N2CCN(C(=O)C3(NC(=O)CC(c4ccccc4)c4ccccc4)CCCCC3)CC2)c1 [Compound 16] | 81 |
